test system: NCI-H322M lung; test: NCI-60 one-dose screen, 48 h (100 = growth as untreated, 0 = no growth, -100 = all killed); conditions: 10 µM unless noted
The panel holds about 83,000 compounds, 20% with a hit somewhere; the sample as a whole holds those more often.
Values of growth strictly less than 60% map to y, and values of at least 60% map to n.

{"molecule": "COc1ccc(S(=O)(=O)NCCNc2nccc(-c3c(-c4cccc(N)c4)nc4sccn34)n2)cc1", "assigned_class": "n"}
{"molecule": "C[C@]12C[C@@H](c3ccoc3)OC(=O)[C@@H]1CC[C@]1(C)[C@@H]2CC[C@@H](O)[C@]1(C)O", "assigned_class": "n"}
{"molecule": "O=C(Cn1cc(CN2C(=O)c3ccccc3S2(=O)=O)nn1)Nc1ccc([N+](=O)[O-])cc1Cl", "assigned_class": "n"}
{"molecule": "Cc1nc2sc(C(=O)Nc3cccc4c3OCCO4)c(N)c2cc1C(C)O (stereo not drawn)", "assigned_class": "n"}
{"molecule": "Cc1nn(-c2nc3ccccc3[nH]2)c2c1C(c1ccc3c(c1)OCO3)CC(=O)N2 (stereo not drawn)", "assigned_class": "n"}
{"molecule": "Cc1csc2ccc(Cl)cc12", "assigned_class": "n"}
{"molecule": "Cc1ccc(Nc2c(C(N)=O)cnc3ccc(-c4csc(N)n4)cc23)cc1", "assigned_class": "n"}
{"molecule": "C=C1CCC2C3(C)COC(C)(C)OC3CCC2(C)C1C/C=C1/C(=O)OCC1OC(C)=O (stereo not drawn)", "assigned_class": "n"}
{"molecule": "Nc1cccc(-c2nc3sccn3c2-c2ccnc(NCCCNS(=O)(=O)c3ccc(C(F)(F)F)cc3)n2)c1", "assigned_class": "y"}
{"molecule": "CNCc1cccc2c1OCCOCCOCCN(C)S(=O)(=O)c1ccc(cc1)-c1cnc(N)c(n1)C(=O)N2", "assigned_class": "y"}
{"molecule": "O=C1c2cc3c(cc2-c2c1c1cc(F)c(F)cc1c(=O)n2C[C@H](O)CO)OCO3", "assigned_class": "y"}
{"molecule": "CCN1CCN(Cc2ccc(NC(=O)Nc3nc4ccc(Oc5ccnc(C(=O)NC)c5)cc4s3)cc2C(F)(F)F)CC1", "assigned_class": "y"}
{"molecule": "COc1ccc2[nH]c(=O)c(/C=C/C(=O)c3ccc(Nc4nccc(-c5ccc6ccccc6c5)n4)cc3)cc2c1", "assigned_class": "n"}
{"molecule": "Cc1ccc2c(c1)C(=O)/C(=C/c1ccc(OCC(=O)c3ccccc3)cc1)O2", "assigned_class": "n"}
{"molecule": "CCCCOc1ccc(NC(=O)n2nc(NC(C)=O)c3cc(NC(C)=O)ccc32)cc1", "assigned_class": "n"}
{"molecule": "C=C1CC2(OC1=O)C(=O)N(CCCCCCCCCCCCN1C(=O)C3(CC(=C)C(=O)O3)c3ccccc31)c1ccccc12 (stereo not drawn)", "assigned_class": "n"}
{"molecule": "C=C1CC[C@@H]2[C@](C)(COC(C)=O)[C@H](OC(C)=O)CC[C@@]2(C)[C@@H]1CC(Nc1ccc(S(=O)(=O)Nc2ccc(Cl)nn2)cc1)C1=CCOC1=O (stereo partly drawn)", "assigned_class": "y"}
